The measured values listed here are drawn from patent US20090004261A1.

Please provide measured Papp for the entries that follow.
Assay: Membrane permeability coefficient on the CaCO2 cell model
Type: in vitro ADME
Details: human, Caco-2
Description: These compounds are molecules that are very sparingly soluble in water, respectively: 0.1 μg/ml and 1 μg/l at pH=6.5. Furthermore, these compounds have high membrane permeability coefficients: respectively, 78×10^−7 cm/s and 96×10^−7 cm/s on the CaCO2 cell model, as described by M. C. Gres et al. in Pharmaceutical Research, […], 15(5), 726-7333.
Answers are plain numbers, in ×10⁻⁶ cm/s.

COMPOUND: CCc1c(C(=O)NN2CCCCC2)nn(-c2ccc(Cl)cc2Cl)c1-c1ccc(Br)cc1 [Compound A]
Papp (×10⁻⁶ cm/s): 7.8

Here is another compound to look at.
Q: Retrieve Papp measured for Cc1c(C(=O)NN2CCCCC2)nn(-c2ccc(Cl)cc2Cl)c1-c1ccc(Cl)cc1 [Compound B, reference compound] and print it.
Ans: 9.6

* * *

Assay: Solubility in water
Format: physicochemical
Settings: pH=6.5
MEASUREMENT_KIND: solubility (µg/mL)
Answers are plain numbers, in µg/mL.

Q: Retrieve solubility measured for `CCc1c(C(=O)NN2CCCCC2)nn(-c2ccc(Cl)cc2Cl)c1-c1ccc(Br)cc1` and print it.
Ans: 0.1
